This collection of values is drawn from paper PMC6471066.

CC50 at 24 h overview
experiment: Cytotoxicity assay (Alamar Blue); format: cell-based; settings: mouse, J774.A1 macrophage cell line (ATCC TIB-67), murine macrophage J774.A1
// return numeric value only (unit: µM, not printed)

Here's what some known entries look like.
molecule	CC50 at 24 h, µM
C=C(C)C1CCC2(C)CC=C(C)CCC=C(C=O)C(O)CC12 (stereo not shown)	23.4
C=C(C)[C@H]1CC[C@]2(C)C[C@@H]3O[C@@]3(C)CC/C=C(\C)CC[C@@H]12	70
CCCCCCCCCCCCCCCCOP(=O)([O-])OCC[N+](C)(C)C [Miltefosine, reference compound]	72.2

Lookup: Quick one: CC50 at 24 h for O=C(Cn1ccnc1[N+](=O)[O-])NCc1ccccc1 [Benznidazole, reference compound] ?
Found: 400
